system.name: human GLP-1 receptor (human, UniProt P43220 24-463)
run.description: cell-based or functional assay
Starred links: 1 amine or outer side, 2 acyl side, 3 side chain; linkers in the order of their positions; H or OH if unused. Non-standard residues stand in square brackets, D forms with d. Groups on a side chain read outwards from the residue. No end group written: not given here. *: point of attachment. C18 diacid = O=C(O)CCCCCCCCCCCCCCCCC(=O)*; γGlu = O=C(O)[C@H](CCC(=O)[*:2])N[*:1]; AEEA = NCCOCCOCC(=O)O; Aib = CC(C)(N)C(=O)O
So I've got a bunch of binders here, and I need their EC50 CreLuc hGLP1R 0.5% hP values.
Express your answer in nM, writing the number without its unit.

Give reported EC50 CreLuc hGLP1R 0.5% hP value for YXEGTFTSDLSIXLEKQAQXAFVEWLIKGGPSSGASLRHYYNWLTRQRY (Aib at 2, 13, 20; K28 side chain: C20DA-gGlu-gGlu-gGlu-gGlu-gGlu-gGlu-eLys; C-terminal NH2) [Compound 172]
0.07

Give reported EC50 CreLuc hGLP1R 0.5% hP value for YXEGTFTSDYSIXLEKQAQXAFVEWLIKGGPSSGASVRHYYNWLTRQRY (Aib at 2, 13, 20; K28 side chain: C20DA-gGlu-gGlu-gGlu-gGlu-gGlu-gGlu-eLys; C-terminal NH2) [Compound 117]
0.13

Give reported EC50 CreLuc hGLP1R 0.5% hP value for Y[Aib]EGTFTSDYSI[Aib]LEKQAQ[Aib]EFVQWLIK([γGlu-γGlu-γGlu-γGlu-γGlu-γGlu-C18 diacid])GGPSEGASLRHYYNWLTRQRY-NH2 [Compound 151]
0.26

Give reported EC50 CreLuc hGLP1R 0.5% hP value for YXEGTFTSDYSIXLESQAQXAFVEWLIKGGPSSGASLRHYYNWLTRQRY (Aib at 2, 13, 20; K28 side chain: C20DA-gGlu-gGlu-gGlu-gGlu-gGlu-gGlu-eLys; C-terminal NH2) [Compound 121]
0.18

Give reported EC50 CreLuc hGLP1R 0.5% hP value for Y[Aib]EGTFTSDYSI[Aib]LEKQAQ[Aib]EFVQWLIK([AEEA-AEEA-γGlu-γGlu-γGlu-C18 diacid])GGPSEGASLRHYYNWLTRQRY-NH2 [Compound 160]
0.3
